Biological target: T1, CEACAM1 (Sino Biological) (human, UniProt P13688 35-428, limits assumed)
T1 construct: may be the same as CEACAM1-HIS; also called hCEACAM1; biotinylated soluble CEACAM1
T1 sequence: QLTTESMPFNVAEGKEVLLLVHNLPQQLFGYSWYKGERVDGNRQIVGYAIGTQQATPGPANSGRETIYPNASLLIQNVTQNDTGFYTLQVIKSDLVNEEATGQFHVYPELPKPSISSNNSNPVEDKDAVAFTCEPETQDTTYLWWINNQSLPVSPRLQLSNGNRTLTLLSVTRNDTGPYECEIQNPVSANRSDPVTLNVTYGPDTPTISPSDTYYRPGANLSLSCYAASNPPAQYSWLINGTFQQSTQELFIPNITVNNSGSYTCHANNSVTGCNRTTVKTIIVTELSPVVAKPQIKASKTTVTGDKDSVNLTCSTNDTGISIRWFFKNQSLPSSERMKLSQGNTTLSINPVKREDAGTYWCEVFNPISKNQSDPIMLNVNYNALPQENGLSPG
Test: SPR single-cycle
Listing: fold better than Parent (KD) of selected binders
# output: bare number, implied unit fold

Observe how each entry below is paired with its result.
• He4/L16 (antibody, IgG4, V domains shown, IgG4 S241P, kappa; also called He4 / 16) VH: EVQLLESGGGLVQPGGSLRLSCAASGFSFSDYYLYWVRQAPGKGLEWVATISVGGGQTSYADSVKGRFTISRDNSKNTLYLQMNSLRAEDTAMYYCTRALYYGPAWFAYWGQGTLVTVSS VL: DIVMTQSPDSLAVSLGERATINCKSSQSLLNSANQKNYLAWYQQKPGQPPKLLIYFASTRESGVPDRFSGSGSGTDFTLTISSLQAEDVAVYYCQSHYPYPFTFGGGTKVEIK = 3.04
• He17/L4#2 (antibody, IgG4, V domains shown, IgG4 S241P, kappa) VH: EVQLLESGGGLVQPGGSLRLSCAASGFSFSDYYLYWVRQAPGKGLEWVATISVGGGQTSYADSVKGRFTISRDNSKNTLYLQMNSLRAEDTAMYYCTRARTYGPAWFAYWGQGTLVTVSS VL: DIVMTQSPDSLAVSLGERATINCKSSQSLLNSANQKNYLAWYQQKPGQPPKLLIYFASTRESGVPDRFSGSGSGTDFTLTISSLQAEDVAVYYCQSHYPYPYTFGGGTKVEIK = 2.14

I have this binder here, Parent VH/L16 (antibody, IgG4, V domains shown, IgG4 S241P, kappa) VH: EVQLLESGGGLVQPGGSLRLSCAASGFSFSDYYLYWVRQAPGKGLEWVATISVGGGQTSYADSVKGRFTISRDNSKNTLYLQMNSLRAEDTAMYYCTRGLYYGPAWFAYWGQGTLVTVSS VL: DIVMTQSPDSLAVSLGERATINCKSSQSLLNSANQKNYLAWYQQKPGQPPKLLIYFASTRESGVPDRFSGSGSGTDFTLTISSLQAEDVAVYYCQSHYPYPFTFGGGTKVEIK , and I need its recorded fold better than Parent (KD). 2.62

Same for He14/L17 (antibody, IgG4, V domains shown, IgG4 S241P, kappa) VH: EVQLLESGGGLVQPGGSLRLSCAASGFSFSDYYLYWVRQAPGKGLEWVATISVGGGQTSYADSVKGRFTISRDNSKNTLYLQMNSLRAEDTAMYYCTRGLYYGPSWVAYWGQGTLVTVSS VL: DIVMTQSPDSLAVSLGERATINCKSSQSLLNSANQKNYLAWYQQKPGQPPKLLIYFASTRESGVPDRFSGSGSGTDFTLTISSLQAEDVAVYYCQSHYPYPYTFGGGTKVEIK 1.64

Same for He3/L6 (antibody, IgG4, V domains shown, IgG4 S241P, kappa) VH: EVQLLESGGGLVQPGGSLRLSCAASGFSFSDYYLYWVRQAPGKGLEWVATISVGGGQTSYADSVKGRFTISRDNSKNTLYLQMNSLRAEDTAMYYCTRALTYGPAWLAYWGQGTLVTVSS VL: DIVMTQSPDSLAVSLGERATINCKSSQSLLNSANQKNYLAWYQQKPGQPPKLLIYFASTRESGVPDRFSGSGSGTDFTLTISSLQAEDVAVYYCQSHYPFSFTFGGGTKVEIK 1.72

Same for He3/L17 (antibody, IgG4, V domains shown, IgG4 S241P, kappa) VH: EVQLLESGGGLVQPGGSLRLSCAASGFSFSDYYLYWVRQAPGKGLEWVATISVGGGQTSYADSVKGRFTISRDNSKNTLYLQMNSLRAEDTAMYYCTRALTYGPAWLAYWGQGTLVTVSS VL: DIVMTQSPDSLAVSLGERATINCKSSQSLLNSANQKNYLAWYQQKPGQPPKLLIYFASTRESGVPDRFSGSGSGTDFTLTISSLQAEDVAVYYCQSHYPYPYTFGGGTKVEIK 1.91

Same for He14/L5 (antibody, IgG4, V domains shown, IgG4 S241P, kappa) VH: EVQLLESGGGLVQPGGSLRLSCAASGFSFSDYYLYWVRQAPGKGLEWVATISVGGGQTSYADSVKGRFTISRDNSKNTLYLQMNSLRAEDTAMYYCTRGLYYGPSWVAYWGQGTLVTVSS VL: DIVMTQSPDSLAVSLGERATINCKSSQSLLNSANQKNYLAWYQQKPGQPPKLLIYFASTRESGVPDRFSGSGSGTDFTLTISSLQAEDVAVYYCQSHYPFAFTFGGGTKVEIK 1.56

Same for He13/L3 (antibody, IgG4, V domains shown, IgG4 S241P, kappa) VH: EVQLLESGGGLVQPGGSLRLSCAASGFSFSDYYLYWVRQAPGKGLEWVATISVGGGQTSYADSVKGRFTISRDNSKNTLYLQMNSLRAEDTAMYYCTRGLYYGPSWLAYWGQGTLVTVSS VL: DIVMTQSPDSLAVSLGERATINCKSSQSLLNSANQKNYLAWYQQKPGQPPKLLIYFASTRESGVPDRFSGSGSGTDFTLTISSLQAEDVAVYYCQSHFPFPFTFGGGTKVEIK 1.47

Same for He6/L2 (antibody, IgG4, V domains shown, IgG4 S241P, kappa) VH: EVQLLESGGGLVQPGGSLRLSCAASGFSFSDYYLYWVRQAPGKGLEWVATISVGGGQTSYADSVKGRFTISRDNSKNTLYLQMNSLRAEDTAMYYCARARTYGPAWFAYWGQGTLVTVSS VL: DIVMTQSPDSLAVSLGERATINCKSSQSLLNSANQKNYLAWYQQKPGQPPKLLIYFASTRESGVPDRFSGSGSGTDFTLTISSLQAEDVAVYYCQSHYPFPYTFGGGTKVEIK 1.53

Same for He9/L16 (antibody, IgG4, V domains shown, IgG4 S241P, kappa) VH: EVQLLESGGGLVQPGGSLRLSCAASGFSFSDYYLYWVRQAPGKGLEWVATISVGGGQTSYADSVKGRFTISRDNSKNTLYLQMNSLRAEDTAMYYCARAMYYGPAWFAYWGQGTLVTVSS VL: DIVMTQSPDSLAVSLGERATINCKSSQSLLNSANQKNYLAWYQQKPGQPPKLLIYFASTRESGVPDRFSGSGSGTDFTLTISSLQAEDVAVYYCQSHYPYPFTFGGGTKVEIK 5.05
